Origin of measurements: the supplement of paper PMC12764529

Recorded folding stability dG unfold values for a group of sequences are listed next.
# assay-explanation: folding stability dG unfold (combined trypsin and chymotrypsin); higher = more stable

Look over these answered cases.
residues | folding stability dG unfold
SAMPVFTFPVEIPGPEYTPEEIVAILKEAAAKLNLPVDEEVIRELAEKALAEGTTVADIIEEILKRGLGSAG [r14_364_JUSTAS] | 2.52 kcal/mol
SAGGSAGGSGVSSVRPVALPGGRVLVLEYFSSTGKVRVTTLTVGDGRPARAESVTPVTPESILSAGGSAGGS [r12_961_JUSTAS] | 0.495 kcal/mol
SAGGSTVAKKTTEKDPNSDTTTVTITFPETGVKLTVTVPPGGETTVTLNNGSPPTTLTLPLSVLKLLSAGGS [r8_238_JUSTAS] | 0.612 kcal/mol
SAGGSAGGSAGMKTSVTTPVTLPDGTPAVVTKYDGEVEIIDTGDGTSKVVPLSEVPPKLLSAGGSAGGSAGG [r11_155_JUSTAS] | 0.604 kcal/mol
MVITPEEVAEMLGVSPEELAALPLEELAQRILEVLPAGVATSVTVERDPARGTTTITVTLSDGKNIDVTLES [r1_340_JUSTAS] | > 6 kcal/mol

Lab note: next sequence to report on.
Challenge: Look up and report measured folding stability dG unfold for this entry: SAGGKIIAEGEFELEDGYVVRVKVEYDEETGELRVEVEVFEVEVELPEVEVKREFSDEELTEEEKEASAGGS [r8_461_TrROS_Hall]
Response given: 1.39 kcal/mol

###

# assay-explanation: folding stability dG unfold from chymotrypsin proteolysis; higher = more stable
# binning rule on folding stability dG unfold: label 0 = under 6 kJ/mol, label 1 = from 6 kJ/mol up to 10 kJ/mol, label 2 = 10 kJ/mol and over

Use the examples below as a reference point.
residues | answer-label
SAGGKPGEKPRIRIQVKVRYPGNGRKQSITIEIVPDAIEQGLSASELADEIARKMGMPVKIEEIEILSAGGS [r16_554_TrROS] | label 1
SAGGSAGGSADNPQVERTIHDPNGGFKVMINPNDNSIEIWPYKNDKPEPKTFDSPEALDDISAGGSAGGSAG [r3_426_TrROS] | label 0
SKKVKPIATIDVEGMSLEELLAAIKAALPPGEKAIVRIVNADGEVRTIEIDAKTGEIKSLPPGARIYIYPSA [r9_853_TrROS_Hall] | label 1
SAGSPETVTLPLTVTLPPGVPLSQIEAVLKKNGFTELEITASPTPDGTLRYAIDATMPVSVVEKLIKALSAG [r5_376_JUSTAS] | label 1
SAKVYRTKDGKEVKVEKKKVKVKTIEIEIEIEMPKELEEKVKKLAEELAKKLAEELNLPPGAKIKITVRSAG [r14_453_TrROS_Hall] | label 1

Challenge: Note: place this sequence into its band. Item: SAGGMVDVTITFTKPDGTPETRPIPASSLPLEELVARIRALREAGVEAEVELPPSLPEEVREALARLLSAGG [r13_251_JUSTAS]
Response given: label 1

Challenge: Note: place this sequence into its band. Item: SAMTTTETFEEGDYVYTVITTKIPSSLPPDSVVTIPVTTPLGAESEVVSEPGGTITVKVRLKKEDPELLSAG [r14_754_JUSTAS]
Response given: label 0

Challenge: Note: place this sequence into its band. Item: SAGGSAGGSKITVHRNPPGYYVIRIHGPGPITIMIPPKDADELANKLKDLGFDMKVEVYPLDDSAGGSAGGS [r20_124_TrROS]
Response given: label 0

Challenge: Note: place this sequence into its band. Item: SAGGEEELKKNPDLIVIKITIRNKETGEEIEELEIVLSKEELEELLETLRKLLPPGWEIVKVEIRKLPSAGG [r13_849_TrROS_Hall]
Response given: label 2

###

# assay-explanation: folding stability dG unfold from trypsin proteolysis; higher = more stable
measure-name: folding stability dG unfold (kcal/mol)
Answer in kcal/mol, number only, no unit symbol.

residues | folding stability dG unfold (kcal/mol)
SAGGSAGGSAGGPEVERFRIPGDNVLVEVVRLEDERIARITFPDGSQLTVPLPPGWEAFSAGGSAGGSAGGS [r10_976_TrMRF] | 0.853
SPGVTVEISTSTLPNGTRVTTLTTTTFDPQTGTTSTTTTVTVSPAPSSASPLRRELVTRPDGTLVPAALLSA [r9_898_JUSTAS] | -0.234
SAGGSAGGSAGGNVRLTVTLDENGRLRVTAEVEVTNENGEKKTYRLTLTLKLKPGQTLTSAGGSAGGSAGGS [r10_763_TrROS_Hall] | 2.9
SAGGMKKYKVTVTIELTPPDGTTTTVTVTIDVDGDEKKALEEAEKVAEELKAAGYPVTIKEIKIYEESAGGS [r16_525_JUSTAS] | 3.8
SAGGSAGGSAGGMIVETLGDSPETVTLVKLPNKPIIRTYDPVTGTWTIYDPDTNKIYEISAGGSAGGSAGGS [r10_434_JUSTAS] | 1.39
SAKPPKVEVKTVRVTIKVRNKDGSTYTITKEVTEVRVEVDGKTVTVTSIKITIELPPGITEVEIKIEKVSAG [r14_892_TrROS_Hall] | 3.61

Lab note: next sequence to report on.
Challenge: Look up and report measured folding stability dG unfold for this entry: SAGGSAGGSAGGSDKGQPRVEIPMPFFMPNPNYVIRITMEIDLDPNGQIREIDVEVYKFSAGGSAGGSAGGS [r4_75_TrROS]
Response given: 3.21

###

# assay-explanation: folding stability dG unfold from chymotrypsin proteolysis; higher = more stable
measure-name: folding stability dG unfold (kcal/mol)
Answer in kcal/mol, number only, no unit symbol.

Look over these answered cases.
residues | folding stability dG unfold (kcal/mol)
SAGLKVKIVKAEVKNGYLTLEVEVTGKDGSKKPFKIKIKLKPVPKPKPVFKFTKLPNGEIKVEVFDPSSAGG [r19_172_TrMRF] | 3.21
SAGGSAGGSKKKNKPAPPVLVVKVEIVKIELSDEELEAIKKNKEKIKEIYLIKIEVTLVEPEESAGGSAGGS [r12_196_TrROS_Hall] | 2.18
SAGGSAGGSAGMVLRVRTKDGKVIEIKDLSEELKNMTAEQLAEELKKKFPDLKIEVEEVPSAGGSAGGSAGG [r17_42_TrROS_Hall] | 2.26

Challenge: Look up and report measured folding stability dG unfold for this entry: SAGGMADEELANMSLEEVIAAVKEAGAKTVTVTFPDGSTLTIDLGDDGVVTVTLTTPPGEKETFEIPSAGGS [r8_51_TrMRF]
Response given: 2.73

Challenge: Look up and report measured folding stability dG unfold for this entry: SAGGSKTVELEIEIDGKLIKIRVEENENGELTVRIEIYDKNGKKVKEIEIKVKSLEEALKALEKLLSAGGSA [r2_82_TrROS_Hall]
Response given: 3.22

Challenge: Look up and report measured folding stability dG unfold for this entry: SAKKVIIEVKSLEELLKAAKEAAKKGEKVEVLVKLKDGYYVKITMEFDKKTKKIKIKKIEIKPIKKEDLSAG [r14_455_TrROS_Hall]
Response given: 2.75

Challenge: Look up and report measured folding stability dG unfold for this entry: SAGGSAGGSAPRVRYRRRVLVYFPADGSVVPVVLEVSPGPLTLRLDLPAASFPPVRIAPLGSAGGSAGGSAG [r3_454_TrMRF]
Response given: 2.58

###

# assay-explanation: folding stability dG unfold (combined trypsin and chymotrypsin); higher = more stable
# binning rule on folding stability dG unfold: Low: < 1 kcal/mol; Medium: ≥ 1 kcal/mol and < 2 kcal/mol; High: ≥ 2 kcal/mol

Use the examples below as a reference point.
residues | answer-label
SAGGSAGGSIEIDHDRDPGTNRYTATVEIPDPDGKGLEVEVQMNGDPEDAAKTAAKTVLEEFNSAGGSAGGS [r20_33_TrROS] | Low
SAGGSAMIKTSYDPNGKTIYTIPETGAVITVDPSTGKVTVEVDPESQANNPLPEEEVKKLAEEVLKSAGGSA [r15_735_JUSTAS] | Medium
SAGGSAGGSAGGSKKTIKVRIKIEVDGKTYEITVELPEEGMSLEELLKKFPNAKITEIESAGGSAGGSAGGS [r4_278_TrROS_Hall] | High
SAGGSADSVTFTDPNVEEQIVIPPYVIFKYPDGSVRIIAFDDGDKAEILEEIPFVPPLEPLHPDLESAGGSA [r15_393_TrMRF] | Medium
SAGGSAMKAKEIKRLKLKDRPLVVIFLENPEGGYSVLVIPLENPEKVEELLEELVKEGLLDEITPESAGGSA [r15_575_TrMRF] | Medium
SAGGSAGGSAGGMPPRLVEIPIFVPPTDPARAEALAEELREELGAEEVVVRIVLAPPGLGSAGGSAGGSAGG [r7_632_JUSTAS] | Low
SAGSPETVTLPLTVTLPPGVPLSQIEAVLKKNGFTELEITASPTPDGTLRYAIDATMPVSVVEKLIKALSAG [r5_376_JUSTAS] | High
SAGSNKKITAEELAKLLEEKFKEKFPDAEIKVHAHAEPRPDDKLIIHVHFEIYRKKPKIGEFDVVIEFESAG [r5_696_TrMRF] | High

Challenge: Note: place this sequence into its band. Item: SAGGSAGGSAGGSMVYRVVLEPESGERVEFEVTYDEAEELLEKLPPNARLRIEPVPEDASAGGSAGGSAGGS [r4_63_TrMRF]
Response given: Low

Challenge: Note: place this sequence into its band. Item: SAGGSAGGSAGGGPDATPVTTTYVDLNLTPVSTETDPETGAVTVTYKLPGETITVTLPASAGGSAGGSAGGS [r10_962_JUSTAS]
Response given: Low
